The reported numbers originate from patent US8148391B2.

Catalogue of compounds with associated pIC50
Biological target: c-Met (cytoplasmic domain) (Homo sapiens)
Construct: 10 ng/mL c-Met (cytoplasmic domain, Invitrogen Corporation #PV3143); purchased Invitrogen Corporation PV3143
Sequence (P08581 956-1390 limits assumed): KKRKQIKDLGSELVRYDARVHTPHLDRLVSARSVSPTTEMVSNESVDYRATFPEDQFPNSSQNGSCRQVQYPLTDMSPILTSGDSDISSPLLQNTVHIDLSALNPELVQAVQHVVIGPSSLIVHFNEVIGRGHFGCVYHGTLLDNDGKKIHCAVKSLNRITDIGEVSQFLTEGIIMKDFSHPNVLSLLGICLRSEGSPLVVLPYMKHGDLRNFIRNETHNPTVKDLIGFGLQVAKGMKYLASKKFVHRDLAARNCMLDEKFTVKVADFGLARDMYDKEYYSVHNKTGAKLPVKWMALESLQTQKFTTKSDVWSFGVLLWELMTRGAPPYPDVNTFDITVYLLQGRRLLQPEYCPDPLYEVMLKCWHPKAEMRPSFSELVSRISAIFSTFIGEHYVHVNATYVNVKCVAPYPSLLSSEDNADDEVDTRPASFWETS
Assay: c-Met Kinase Assay (same methods as for ALK, with modifications)
Assay type: biochemical
Details: 1 μM ATP (Km level); read-out: cMet Activity (c-Met Kinase Inhibition, IC50)
pIC50: −log10 of the molar value.

Use these answered entries as a reference point.
{"columns": ["compound", "assay-value"],
 "data": [
  ["COCCn1ccnc1-c1ccccc1Nc1nc(Nc2ccc3c(c2)C(C)(C)CCC(=O)N3)ncc1Cl [Example 980]", "< 5.00"],
  ["COc1cc2c(cc1Nc1ncc(F)c(Nc3ccc(N4CCN(C)CC4)cc3OC)n1)CCN(CC(=O)N(C)C)CC2 [Example 793]", "< 5.00"],
  ["CCN1CCc2ccc(Nc3ncc(C(F)(F)F)c(Nc4ccc(N5CCOCC5)cc4OC)n3)cc2CC1 [Example 924]", "6.00 to 7.00"]
]}

--- query ---
[in] # get_value(readout='pIC50', item= COc1cc(N2CCOCC2)ccc1Nc1nc(Nc2ccc3c(c2OC)CCC(NCCO)CC3)ncc1Cl (stereo not shown) [Example 705] )
[out] < 5.00
